# testTarget: EGFR Del19/C797S (Homo sapiens, UniProt P00533, C797S/DEL746-750)
# Sequence (P00533 with tags, fused parts or gaps DEL746-750/C797S): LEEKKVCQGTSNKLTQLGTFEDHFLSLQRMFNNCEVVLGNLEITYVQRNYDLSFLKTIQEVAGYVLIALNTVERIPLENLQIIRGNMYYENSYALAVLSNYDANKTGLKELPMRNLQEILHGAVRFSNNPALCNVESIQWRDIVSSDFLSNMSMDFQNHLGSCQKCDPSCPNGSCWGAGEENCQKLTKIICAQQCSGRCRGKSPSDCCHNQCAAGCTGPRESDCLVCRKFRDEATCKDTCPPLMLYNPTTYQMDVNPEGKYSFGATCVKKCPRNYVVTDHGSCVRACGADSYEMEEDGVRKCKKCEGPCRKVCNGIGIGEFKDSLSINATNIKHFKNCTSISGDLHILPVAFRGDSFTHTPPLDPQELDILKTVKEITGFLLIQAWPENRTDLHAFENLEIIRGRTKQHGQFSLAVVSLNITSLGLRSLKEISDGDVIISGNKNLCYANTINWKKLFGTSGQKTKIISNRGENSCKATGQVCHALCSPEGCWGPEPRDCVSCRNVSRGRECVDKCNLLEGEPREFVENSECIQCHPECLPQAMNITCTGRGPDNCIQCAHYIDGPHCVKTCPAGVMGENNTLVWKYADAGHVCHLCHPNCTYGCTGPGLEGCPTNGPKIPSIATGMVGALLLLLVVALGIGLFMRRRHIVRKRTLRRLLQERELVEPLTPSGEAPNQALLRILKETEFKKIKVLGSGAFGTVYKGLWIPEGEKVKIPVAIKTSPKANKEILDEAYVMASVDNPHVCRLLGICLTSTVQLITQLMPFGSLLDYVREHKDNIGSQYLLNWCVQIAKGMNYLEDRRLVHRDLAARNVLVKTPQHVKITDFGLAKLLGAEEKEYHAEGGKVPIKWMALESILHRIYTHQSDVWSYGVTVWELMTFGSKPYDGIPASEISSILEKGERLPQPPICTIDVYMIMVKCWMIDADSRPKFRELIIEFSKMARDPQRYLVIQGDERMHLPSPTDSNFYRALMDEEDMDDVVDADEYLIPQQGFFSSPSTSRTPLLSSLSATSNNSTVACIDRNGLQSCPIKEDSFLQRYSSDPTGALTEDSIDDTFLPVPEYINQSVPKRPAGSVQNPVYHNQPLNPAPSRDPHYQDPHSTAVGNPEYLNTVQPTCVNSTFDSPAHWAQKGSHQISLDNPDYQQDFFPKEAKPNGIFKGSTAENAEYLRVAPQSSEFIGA
# experimentNotes: Biochemical EGFR kinase inhibition assay (Lance Ultra TR-FRET), double mutant del19/C797S
# runParameters: ATP at Km; read-out: IC50 Del19/C797S (nM), Km ATP
Where a name gives a salt, the structure may show the parent alone.
valueType: IC50 (nM)

Study these solved cases before continuing.
| compound | unitInfo | IC50 |
| --- | --- | --- |
| CN(C)CC1(C)CCN(c2cc(Nc3ccnc(-c4cnn(S(=O)(=O)C5CC5)c4)n3)ncc2C#Cc2cnn(CC(F)F)c2)CC1 | nM | 0.8 |
| CN1CCC2(CCN(c3cc(Nc4ccnc(-c5cnn(S(=O)(=O)C6CC6)c5)n4)ncc3C#Cc3cnn(C)c3)CC2)C1 [Example 297, formate] | nM | 1.2 |
| CC1(CO)CCN(c2cc(Nc3ccnc(-c4cnn(S(=O)(=O)C5CC5)c4)n3)ncc2C#CC2CC2)CC1 | nM | 2 |

[I] CN(C)CCC1CCN(c2cc(Nc3ccnc(-c4cnn(S(=O)(=O)C5CC5)c4)n3)ncc2C#Cc2cnn(C)c2)CC1 [Example 294, formate]
[II] CC1(CO)CCN(c2cc(Nc3ccnc(-c4cnn(S(=O)(=O)C5CC5)c4)n3)ncc2C#Cc2cnn(CC3CCOC3)c2)CC1 (stereo not drawn)
Returns: the argument ( I or II ) having the larger IC50. Please reply using the label of the selected record.
II

[P] CC(C)Nc1cc(Nc2ccnc(-c3cnn(S(=O)(=O)C4CC4)c3)n2)ncc1C#Cc1csc(C2CC2)n1
[Q] CC1(CO)CCN(c2cc(Nc3ccnc(-c4cnn(S(=O)(=O)C5CC5)c4)n3)ncc2C#CCCN2CCOCC2)CC1
[R] O=S(=O)(C1CC1)n1cc(-c2nccc(Nc3cc(N[C@H]4CC[C@@H](O)CC4)c(C#Cc4ccc(CN5CCOCC5)s4)cn3)n2)cn1
Please order the records by their reported IC50, lowest number first. I would appreciate it if you listed the labels in the requested order.
Q, R, P
(Q: 0.4 nM, R: 3.3 nM, P: 265 nM)

[P] O=S(=O)(C1CC1)n1cc(-c2nccc(Nc3cc(N[C@H]4CC[C@@H](O)CC4)c(C#CC4CCOCC4)cn3)n2)cn1
[Q] CC1(CO)CCN(c2cc(Nc3ccnc(-c4cnn(S(=O)(=O)C5CC5)c4)n3)ncc2C#Cc2cnc(C(F)(F)F)s2)CC1
[R] Cn1cc(C#Cc2cnc(Nc3ccnc(-c4cnn(S(=O)(=O)C5CC5)c4)n3)cc2N2CCC3(CCNC3)CC2)cn1
[S] CC1(CO)CCN(c2cc(Nc3ccnc(-c4cnn(S(=O)(=O)C5CC5)c4)n3)ncc2C#Cc2cnn(CC3COCCO3)c2)CC1 (stereo not drawn)
Could you please order the items by IC50, going from the lowest number to the highest? Would you mind listing the labels in the order asked for?
R, S, P, Q

[I] CC1(CO)CCN(c2cc(Nc3ccnc(-c4cnn(S(=O)(=O)C5CC5)c4)n3)ncc2C#CC2CCOC2)CC1 (stereo not drawn)
[II] O=S(=O)(C1CC1)n1cc(-c2nccc(Nc3cc(N[C@H]4CC[C@@H](O)CC4)c(C#CC4(O)CCCC4)cn3)n2)cn1
Please indicate which entry, I or II , has the lower recorded IC50 value. State your choice using its label.
I
(I: 0.6 nM, II: 3 nM)

---

# testTarget: EGFR wildtype (WT) (Homo sapiens, UniProt P00533)
# Sequence (P00533 25-1210): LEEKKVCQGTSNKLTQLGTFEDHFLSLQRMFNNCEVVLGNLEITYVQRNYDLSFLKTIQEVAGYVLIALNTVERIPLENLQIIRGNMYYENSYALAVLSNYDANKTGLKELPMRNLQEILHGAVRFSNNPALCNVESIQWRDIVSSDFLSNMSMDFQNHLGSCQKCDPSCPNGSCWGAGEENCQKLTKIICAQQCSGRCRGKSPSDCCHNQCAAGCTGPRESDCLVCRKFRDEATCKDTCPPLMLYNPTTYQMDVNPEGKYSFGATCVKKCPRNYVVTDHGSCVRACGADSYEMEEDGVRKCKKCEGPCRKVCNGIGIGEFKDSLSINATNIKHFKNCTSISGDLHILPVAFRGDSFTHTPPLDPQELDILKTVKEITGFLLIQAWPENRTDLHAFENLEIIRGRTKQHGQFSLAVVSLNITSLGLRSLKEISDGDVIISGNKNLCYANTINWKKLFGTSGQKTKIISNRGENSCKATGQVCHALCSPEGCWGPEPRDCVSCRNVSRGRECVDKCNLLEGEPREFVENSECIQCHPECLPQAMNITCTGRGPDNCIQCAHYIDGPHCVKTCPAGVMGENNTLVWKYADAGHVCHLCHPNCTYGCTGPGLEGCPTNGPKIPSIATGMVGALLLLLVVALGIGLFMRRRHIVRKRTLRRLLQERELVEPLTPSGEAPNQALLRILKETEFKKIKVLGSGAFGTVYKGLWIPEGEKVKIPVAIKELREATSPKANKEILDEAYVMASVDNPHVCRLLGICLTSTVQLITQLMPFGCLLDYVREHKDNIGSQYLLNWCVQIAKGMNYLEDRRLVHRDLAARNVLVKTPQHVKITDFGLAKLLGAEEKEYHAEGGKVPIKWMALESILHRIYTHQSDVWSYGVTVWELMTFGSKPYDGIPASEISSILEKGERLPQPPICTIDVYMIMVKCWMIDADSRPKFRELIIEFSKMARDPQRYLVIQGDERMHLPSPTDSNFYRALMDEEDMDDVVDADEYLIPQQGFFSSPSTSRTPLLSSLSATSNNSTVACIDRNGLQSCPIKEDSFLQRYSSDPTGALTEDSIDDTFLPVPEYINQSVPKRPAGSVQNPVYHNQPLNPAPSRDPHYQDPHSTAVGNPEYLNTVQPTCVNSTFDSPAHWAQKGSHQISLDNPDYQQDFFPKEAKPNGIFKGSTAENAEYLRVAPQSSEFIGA
# experimentNotes: Biochemical EGFR kinase inhibition assay (Lance Ultra TR-FRET), wildtype
# runParameters: IC50 WT (nM), 100 μM ATP
valueType: IC50

| molecule | testTarget | valueType | endpointValue |
| --- | --- | --- | --- |
| CC1(CO)CCN(c2cc(Nc3ccnc(-c4cnn(S(=O)(=O)C5CC5)c4)n3)ncc2C#Cc2cnn(CC3CCOCC3)c2)CC1 [Example 231] | EGFR wildtype (WT) (Homo sapiens, UniProt P00533) | IC50 | 968 nM |

Report the value of IC50 obtained on EGFR wildtype (WT) (Homo sapiens, UniProt P00533) for Cn1cc(C#Cc2cnc(Nc3ccnc(-c4cnn(S(=O)(=O)C5CC5)c4)n3)cc2N[C@H]2CCC[C@H](O)C2)cn1 [Example 43] .
> 10000 nM

Using EGFR wildtype (WT) (Homo sapiens, UniProt P00533) as the test system, report measured IC50 of CN(C)CC1CCN(c2cc(Nc3ccnc(-c4cnn(S(=O)(=O)C5CC5)c4)n3)ncc2C#Cc2cnn(CC(F)F)c2)CC1 [Example 301] .
> 10000 nM

Find IC50 for CN1CCC2(CC1)CCN(c1cc(Nc3ccnc(-c4cnn(S(=O)(=O)C5CC5)c4)n3)ncc1C#Cc1cnn(C)c1)CC2 [Example 318] on EGFR wildtype (WT) (Homo sapiens, UniProt P00533) and write it down.
5990 nM

Look up and report measured IC50 (EGFR wildtype (WT) (Homo sapiens, UniProt P00533)) for the following molecule: CN(C)CC1CCN(c2cc(Nc3ccnc(-c4cnn(S(=O)(=O)C5CC5)c4)n3)ncc2C#Cc2cnn(C)c2)CC1 [Example 295]
> 10000 nM

Specify the recorded IC50 for CC1(CO)CCN(c2cc(Nc3ccnc(-c4cnn(S(=O)(=O)C5CC5)c4)n3)ncc2C#Cc2ccc(CN3CCOCC3)cn2)CC1 [Example 185] , system: EGFR wildtype (WT) (Homo sapiens, UniProt P00533).
> 10000 nM

Give reported IC50 for Cc1nn(S(=O)(=O)N(C)C)cc1-c1nccc(Nc2cc(N3CCC(C)(CO)CC3)c(C#Cc3cnn(C(F)(F)F)c3)cn2)n1 [Example 272] (EGFR wildtype (WT) (Homo sapiens, UniProt P00533))
> 10000 nM

Name the value of IC50 reported for CC1(CO)CCN(c2cc(Nc3ccnc(-c4cnn(S(=O)(=O)C5CC5)c4)n3)ncc2C#CC2(O)CCCCC2)CC1 [Example 175] when tested on EGFR wildtype (WT) (Homo sapiens, UniProt P00533).
> 10000 nM

---

Listed here are molecules together with their documented IC50.
# testTarget: EGFR wildtype (WT) (Homo sapiens, UniProt P00533)
# experimentNotes: Biochemical EGFR kinase inhibition assay (Lance Ultra TR-FRET), wildtype
# runParameters: IC50 WT (nM), 100 μM ATP

Use the examples below as a reference point.
| molecule | IC50 |
| --- | --- |
| CC1(CO)CCN(c2cc(Nc3ccnc(-c4cnn(S(=O)(=O)C5CC5)c4)n3)ncc2C#Cc2nc(C(F)(F)F)cs2)CC1 | > 10000 nM |
| O=S(=O)(C1CC1)n1cc(-c2nccc(Nc3cc(N[C@H]4CC[C@@H](O)CC4)c(C#CC4(O)CCOCC4)cn3)n2)cn1 | > 10000 nM |
| O=S(=O)(C1CC1)n1cc(-c2nccc(Nc3cc(NC4CCC(O)CC4)c(C#CC4CCOC4)cn3)n2)cn1 (stereo not shown) | 5980 nM |

Read the next record carefully.
Consider the molecule O=S(=O)(C1CC1)n1cc(-c2nccc(Nc3cc(NC4CCC(O)CC4)c(C#CC4(F)CCOC4)cn3)n2)cn1 (stereo not shown) and give its recorded IC50.
> 10000 nM

---

# testTarget: EGFR wildtype (WT) (Homo sapiens, UniProt P00533)
# experimentNotes: Biochemical EGFR kinase inhibition assay (Lance Ultra TR-FRET), wildtype
# runParameters: IC50 WT (nM), 100 μM ATP
valueType: IC50

The following compounds have reported results that may help.
| compound | IC50 |
| --- | --- |
| CN(C)S(=O)(=O)n1cc(-c2nccc(Nc3cc(N4CCC(C)(CO)CC4)c(C#Cc4cnn(C(F)(F)F)c4)cn3)n2)cn1 [Example 273] | > 10000 nM |
| CC1(CO)CCN(c2cc(Nc3ccnc(-c4cnn(S(=O)(=O)C5CC5)c4)n3)ncc2C#CC2CCCC2)CC1 [Example 251] | > 10000 nM |
| CC1(CO)CCN(c2cc(Nc3ccnc(-c4cnn(S(=O)(=O)C5CC5)c4)n3)ncc2C#C[Si](C)(C)C)CC1 [Example 246] | > 10000 nM |
| CC1(CO)CCN(c2cc(Nc3ccnc(-c4cnn(S(=O)(=O)C5CC5)c4)n3)ncc2C#Cc2ccncc2)CC1 [Example 258] | 5310 nM |
| CN(C)CCCn1cc(C#Cc2cnc(Nc3ccnc(-c4cnn(S(=O)(=O)C5CC5)c4)n3)cc2N2CCC3(CC2)CC(C)(O)C3)cn1 [Example 152] | 196 nM |

Give the reported value of IC50 for this record: Cn1cc(C#Cc2cnc(Nc3ccnc(-c4cnn(S(=O)(=O)C5CC5)c4)n3)cc2N2CCCC(CO)CC2)cn1 (stereo not shown) [Example 78]
> 10000 nM

---

# testTarget: EGFR Del19/C797S (Homo sapiens, UniProt P00533, C797S/DEL746-750)
# experimentNotes: Biochemical EGFR kinase inhibition assay (Lance Ultra TR-FRET), double mutant del19/C797S
# runParameters: read-out: IC50 Del19/C797S (nM), 100 μM ATP
valueType: IC50 (nM)

[P] O=S(=O)(C1CC1)n1cc(-c2nccc(Nc3cc(N[C@H]4CC[C@@H](O)CC4)c(C#Cc4ccc(NCCN5CCOCC5)cc4)cn3)n2)cn1
[Q] C[C@]1(O)CC[C@@H](Nc2cc(Nc3ccnc(-c4cnn(S(=O)(=O)C5CC5)c4)n3)ncc2C#Cc2ccc(CN3CCOCC3)cc2)CC1
For the two items P and Q , which reports the higher IC50 value? Reply with the label of the item you choose.
Q

[P] C[C@]1(O)CC[C@@H](Nc2cc(Nc3ccnc(-c4cnn(S(=O)(=O)C5CC5)c4)n3)ncc2C#CCN2CCOCC2)CC1
[Q] O=S(=O)(C1CC1)n1cc(-c2nccc(Nc3cc(N[C@H]4CC[C@@H](O)CC4)c(C#Cc4cccc(NCCN5CCOCC5)c4)cn3)n2)cn1
Please state the entry with greater IC50 among P and Q . Refer to your chosen item by its label in the answer.
P
(P: 51.1 nM, Q: 8.5 nM)
